one-hybrid fitness for binding parS DNA: recorded values
B1: Caulobacter ParB omega fusion; a variant is named by its letters at X, in order, B8GW30 (parent)
chain: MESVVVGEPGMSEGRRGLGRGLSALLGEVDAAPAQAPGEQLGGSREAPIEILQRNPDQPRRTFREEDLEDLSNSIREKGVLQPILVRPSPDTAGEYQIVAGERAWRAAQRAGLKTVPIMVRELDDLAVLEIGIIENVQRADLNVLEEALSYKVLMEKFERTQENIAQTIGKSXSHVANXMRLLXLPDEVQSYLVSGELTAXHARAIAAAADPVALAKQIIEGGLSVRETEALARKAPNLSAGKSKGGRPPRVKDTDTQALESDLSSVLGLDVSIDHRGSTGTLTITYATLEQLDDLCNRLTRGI

variants of: B1; test: one-hybrid fitness for binding parS DNA (scaled: cognate 1, non-cognate 0); higher = stronger binding; conditions: with parS DNA site
Whole data set: some 81,000 sequences, median “one-hybrid fitness for binding parS DNA” near -0.17, cut for the highest 2% near 0.51. The sample holds the highest values, similar sequences and a random draw of the others, so the mix is not that of the screen.
Lab note: record the figure alone, no unit after it.

• RAKF = 0.385

The value of one-hybrid fitness for binding parS DNA measured for the variant "RCTN" turned out to be 0.475

The value of one-hybrid fitness for binding parS DNA measured for the variant "RVHM" turned out to be 0.314

The value of one-hybrid fitness for binding parS DNA measured for the variant "RRCG" turned out to be 0.758

Data credit: a collection of fitness landscapes (doi:10.1016/j.celrep.2020.107928)
